These data points were gathered from paper PMC11269945.

Below are compounds with their pIC50 as measured on SARS-CoV-2 Mac1 (Severe acute respiratory syndrome coronavirus 2, UniProt P0DTD1).
FYI, pIC50 means -log10 of a concentration in mol per litre.

- Compound: "O=C(Nc1ccc(C(=O)NC2c3cccc(O)c3CC2C(=O)O)c(O)c1)NC1CC1 (centres unmarked)"
  pIC50: 4.85

Bench note, SARS-CoV-2 Mac1 (Severe acute respiratory syndrome coronavirus 2, UniProt P0DTD1): O=C(Nc1ccccc1)Nc1ccc(C(=O)NC2c3cccc(O)c3CC2C(=O)O)cc1 (centres unmarked) , pIC50 reads 5.22

---

System under test: PARP14 Mac2/3 (Homo sapiens, UniProt Q460N5)
Sequence (Q460N5 994-1393): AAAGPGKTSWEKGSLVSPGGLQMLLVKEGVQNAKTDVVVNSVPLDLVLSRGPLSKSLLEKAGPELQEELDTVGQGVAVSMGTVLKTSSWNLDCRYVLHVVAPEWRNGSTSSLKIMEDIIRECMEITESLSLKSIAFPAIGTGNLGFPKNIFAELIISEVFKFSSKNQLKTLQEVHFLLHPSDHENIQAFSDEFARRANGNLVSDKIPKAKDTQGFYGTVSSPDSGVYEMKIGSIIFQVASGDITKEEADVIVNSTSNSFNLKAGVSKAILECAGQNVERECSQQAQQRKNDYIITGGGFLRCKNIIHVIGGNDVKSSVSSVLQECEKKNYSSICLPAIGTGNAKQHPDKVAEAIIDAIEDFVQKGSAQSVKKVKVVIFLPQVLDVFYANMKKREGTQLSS
Assay details: biochemical
Structures can show the parent of a compound that is named as a salt.
Recorded metric: pIC50
FYI, pIC50 means -log10 of a concentration in mol per litre.

Documented pIC50 of Nc1ncnc2c1ncn2C1OC(COP(=O)(O)OP(=O)(O)OCC2OC(O)C(O)C2O)C(O)C1O (stereo not shown) [ADPr, Adenosine 5′-diphosphoribose sodium salt] : 4.17
